TEST_TARGET: NPR-B (Homo sapiens, UniProt P20594)
Sequence (P20594 23-1047): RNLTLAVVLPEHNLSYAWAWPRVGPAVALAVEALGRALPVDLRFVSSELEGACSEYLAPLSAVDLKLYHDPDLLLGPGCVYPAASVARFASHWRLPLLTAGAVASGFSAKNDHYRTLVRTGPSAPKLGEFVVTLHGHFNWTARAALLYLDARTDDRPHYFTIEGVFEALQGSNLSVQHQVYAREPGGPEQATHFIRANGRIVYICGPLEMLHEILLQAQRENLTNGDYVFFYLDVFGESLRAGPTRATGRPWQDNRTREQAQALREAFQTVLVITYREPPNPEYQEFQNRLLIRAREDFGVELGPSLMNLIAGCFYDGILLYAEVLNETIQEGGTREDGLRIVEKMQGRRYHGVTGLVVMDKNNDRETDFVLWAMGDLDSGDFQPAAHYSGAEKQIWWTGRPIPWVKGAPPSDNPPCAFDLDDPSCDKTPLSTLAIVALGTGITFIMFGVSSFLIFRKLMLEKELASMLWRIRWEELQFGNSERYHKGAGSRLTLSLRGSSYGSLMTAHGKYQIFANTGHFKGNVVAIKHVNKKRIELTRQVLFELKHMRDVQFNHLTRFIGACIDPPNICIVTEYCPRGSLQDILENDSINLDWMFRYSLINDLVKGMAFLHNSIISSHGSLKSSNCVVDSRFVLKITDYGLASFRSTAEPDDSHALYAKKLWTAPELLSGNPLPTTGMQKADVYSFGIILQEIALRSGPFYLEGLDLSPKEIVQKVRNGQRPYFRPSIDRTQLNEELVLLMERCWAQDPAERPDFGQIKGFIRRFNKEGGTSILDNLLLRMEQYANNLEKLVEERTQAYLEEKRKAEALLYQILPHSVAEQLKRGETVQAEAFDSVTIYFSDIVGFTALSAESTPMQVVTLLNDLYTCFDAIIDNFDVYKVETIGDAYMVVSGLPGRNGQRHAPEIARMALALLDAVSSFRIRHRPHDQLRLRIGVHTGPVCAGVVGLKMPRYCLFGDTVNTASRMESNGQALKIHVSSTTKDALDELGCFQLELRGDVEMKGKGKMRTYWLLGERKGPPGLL
ASSAY_EXPLANATION: Whole cell guanylyl cyclase (cGMP) assay, NPR-B
Assay type: cell-based
Design: expressed in transfected cells
CONDITION_SUMMARY: EC50
Bridge positions count the residues as written; N and C are the ends. Ends that are not written are not given here.
ASSAY_METRIC: pEC50
Bear in mind: pEC50 is minus log10 of a mol/L concentration; give just that figure.

Consider the reported pEC50 for these sequences:
EEEEEESGGGGSGGGKGANQKGLSKGCFGLKLDRIGSMSGLGC (disulfide 27-43) [C7(E6) [BC7]] :: 6.00
EEEEEEHKLRGQEHPNARKYKGANKKGLSKGCFGLKLDRIGSMSGLGC (disulfide 32-48) [KB1(E6)] :: 7.07
GLSKGCFGLKLDRIGSMSGLGCGGGGSGGGGSGGGGDDDDDD (disulfide 6-22) [CNP-14AAlinker-D6 [C4]] :: 5.67

Please find the next sequence below.
Exam item: Look up pEC50: EEEEEEHGPQGQEHPNARKYKGANKKGLSKGCFGLKLDRIGSMSGLGC (disulfide 32-48) [KA1(E6)]
Marked response: 6.84

Sourced from patent US9266939B2
